The reported measurements were obtained from the supplement of paper PMC10567573.

- Experiment: protein stability index of a GFP-peptide fusion (GPS, HEK-293T) (PSI 1-6); higher = more stable;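 further: 24-mer peptide tiles fused after GFP, lentivirally expressed, FACS-sorted into six equal bins by GFP/DsRed ratio, decoded by Illumina sequencing, PSI is the read-weighted mean bin number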
- Condition parameters: treatment: MLN4924 1 uM, 8 h; c terminus: a fixed tail appended
For each entry below, report its protein stability index value.

Q. Fill blank: measured protein stability index of the sequence DAPPVELQLLHECSPSQMDLLCAQ [FANCE] is ____.
A. 4.63

Q. Fill blank: measured protein stability index of the sequence NLIEKSASLDNGGCALTTFSVLEG [SOAT1] is ____.
A. 3.32

Q. Fill blank: measured protein stability index of the sequence ENPVGTFHCSMSPGNLEKNRYGDV [PTPN9] is ____.
A. 3.4

Q. Fill blank: measured protein stability index of the sequence SCIGNKQKAVKSCLVCQASFCELH [TRIM29] is ____.
A. 3.79

###

- Experiment: protein stability index of a GFP-peptide fusion (GPS, HEK-293T) (PSI 1-6); higher = more stable
- Condition parameters: treatment: DMSO; c terminus: a fixed tail appended
Assay metric: protein stability index
Just the number.

Q. Fill blank: measured protein stability index of the sequence FIAGLCVFIISTLAIDFIDEGRLL [SOAT2] is ____.
A. 2.81

Q. Fill blank: measured protein stability index of the sequence RECGLAAPRFSFNDPSGSEEADFL [IRX6] is ____.
A. 4.53

Q. Fill blank: measured protein stability index of the sequence EALITDPDEMRMQALLIRERILGP [FEM1A] is ____.
A. 3.56

Q. Fill blank: measured protein stability index of the sequence MVIHIPEEPRPSRPRYKADVPDLQ [KCNK9] is ____.
A. 3.02

Q. Fill blank: measured protein stability index of the sequence GSSPKSKTKWTKEDGHRTSTSAVP [ADD1] is ____.
A. 4.96

Q. Fill blank: measured protein stability index of the sequence GLAFFTFPNIASATKFKQLYRSRM [HMOX1] is ____.
A. 2.39

Q. Fill blank: measured protein stability index of the sequence FNLFCQKRFDESMQVFAKLGTDPT [VPS39] is ____.
A. 2.68

###

For each entry below, report its protein stability index value.
- Experiment: protein stability index of a GFP-peptide fusion (GPS, HEK-293T) (PSI 1-6); higher = more stable
- Condition parameters: treatment: DMSO; c terminus: a fixed tail appended
Just the number.

Q. Fill blank: measured protein stability index of the sequence SGTMGAAKVTGEVLDILTRLPESV [FLOT1] is ____.
A. 3.64

Q. Fill blank: measured protein stability index of the sequence CLHHICTNYNNVCRKFPRDMKAMS [RHOBTB2] is ____.
A. 2.26

Q. Fill blank: measured protein stability index of the sequence NHHSPGGSSDASGSYSSTMNGHQN [ESRRG] is ____.
A. 4.86

Q. Fill blank: measured protein stability index of the sequence YQPLVTMDDAMERTVQSFRHLRRV [NSDHL] is ____.
A. 3.14

Q. Fill blank: measured protein stability index of the sequence VTPRTALLTWTEPPVRPAGYLLSF [TNXB] is ____.
A. 2.42

Q. Fill blank: measured protein stability index of the sequence RVLRGRPGAGSRRRGRMALCGQAA [FBXO33] is ____.
A. 4

Q. Fill blank: measured protein stability index of the sequence SLAEVRVGYQSQNISCFFRLVDRD [MYORG] is ____.
A. 2.42

Q. Fill blank: measured protein stability index of the sequence NFRVGKKIGCGNFGELRLGKNLYT [CSNK1G1] is ____.
A. 2.24

Q. Fill blank: measured protein stability index of the sequence KHERTHEIIPINVNNNYEHRHTSH [SPRY1] is ____.
A. 3.68

Q. Fill blank: measured protein stability index of the sequence VLPPIHAYGNRTECRNPQELESIR [FEM1B] is ____.
A. 4.14

Q. Fill blank: measured protein stability index of the sequence TDVQKKKLVDAIVSGDTSKLMKIL [RIPK4] is ____.
A. 2.78

Q. Fill blank: measured protein stability index of the sequence ELVVIIGWAKHIPGFSTLSLADQM [ESRRG] is ____.
A. 3.19

Q. Fill blank: measured protein stability index of the sequence PSEKKVAIIRTPPKSPATPKQLRL [MAP2] is ____.
A. 4.2

Q. Fill blank: measured protein stability index of the sequence VVAMARKLQDVFEMRFAKMPDEPV [BRD3] is ____.
A. 2.49

Q. Fill blank: measured protein stability index of the sequence ASFDVCESVDEAGGSGPAGLRAST [RHOBTB2] is ____.
A. 5.24

Q. Fill blank: measured protein stability index of the sequence LDLSKPNDLWPTMENLLQATKSHV [DYNC2LI1] is ____.
A. 3.06

Q. Fill blank: measured protein stability index of the sequence RFALRFIRPDPRSRVTDPVGDIVS [FAF2] is ____.
A. 2.49

Q. Fill blank: measured protein stability index of the sequence VFLASKVEEFGVVSNTRLIAAATS [CCNC] is ____.
A. 2.46

Q. Fill blank: measured protein stability index of the sequence YPAMTFYSPAVMNYSIPSNVTNLE [ESR2] is ____.
A. 2.63

Q. Fill blank: measured protein stability index of the sequence GDKLKFLSMLLTLKCEMNQMSGEP [ACSBG2] is ____.
A. 2.38

Q. Fill blank: measured protein stability index of the sequence GHGTRKRVPLGRLELLEEVLALGL [RSAD1] is ____.
A. 2.15

Q. Fill blank: measured protein stability index of the sequence KNLKIWNVHTGEFRNCGACVTLMQ [WDR88] is ____.
A. 2.42

Q. Fill blank: measured protein stability index of the sequence EAVPEGPDGGGPWLEDEPGRGAQG [ZSWIM9] is ____.
A. 5.45

Q. Fill blank: measured protein stability index of the sequence KSDKALMMLFNDGTFQVNFYHDHT [PLK2] is ____.
A. 1.86

Q. Fill blank: measured protein stability index of the sequence AKKAMGYQPLVTMDDAMERTVQSF [NSDHL] is ____.
A. 3.62

Q. Fill blank: measured protein stability index of the sequence TREGFGHSTSLKVPLARSLQISEE [LCOR] is ____.
A. 3.39

Q. Fill blank: measured protein stability index of the sequence PGEWLELLLEPGSLYILRGSARYD [ALKBH7] is ____.
A. 3.2

Q. Fill blank: measured protein stability index of the sequence AICGDRATGKHYGASSCDGCKGFF [HNF4A] is ____.
A. 2.8

Q. Fill blank: measured protein stability index of the sequence WTHDGIDINNNFPDLNTLLWEAED [CPXM2] is ____.
A. 3.44

Q. Fill blank: measured protein stability index of the sequence DAPPVELQLLHECSPSQMDLLCAQ [FANCE] is ____.
A. 4.31

Q. Fill blank: measured protein stability index of the sequence AKYEYMEEQVILTEKDLLEDGFGE [SAT1] is ____.
A. 4.02

Q. Fill blank: measured protein stability index of the sequence CLSRHSINPYSNRESRILFSTWNL [DFFB] is ____.
A. 2.28
